# Tested on: Toxoplasma gondii
# ASSAY_DETAILS: Antiapicomplexan activity against Toxoplasma gondii RH tachyzoites infected in HFF cells assessed as [3H]-uracil incorporation after 24 hrs by scintillation luminescence counter
# Type: functional
QUANTITY_KIND: MIC90 (µM)
A number alone suffices; assume µM.

| ENTRY_SMILES | TARGET_SYSTEM | UNIT_ANNOTATION | EXPERIMENTAL_RESULT |
| --- | --- | --- | --- |
| O=C(Nc1ccc(Cl)cc1F)c1cc(Cl)ccc1O | Toxoplasma gondii | µM | 0.5 |
| O=C(Nc1cccc(Br)c1)c1cc(Cl)ccc1O | Toxoplasma gondii | µM | 0.75 |

Moving on to another compound below.
Exercise: Item under review: O=C(Nc1cc(Cl)cc(Cl)c1)c1cc(Cl)ccc1O . Reported MIC90?
Solution: 0.25

---

Item-by-item account of MIC90
# Test system: Toxoplasma gondii
# ASSAY_DETAILS: Antiapicomplexan activity against Toxoplasma gondii RH tachyzoites infected in HFF cells assessed as [3H]-uracil incorporation after 24 hrs by scintillation luminescence counter
# Type: functional

| COMPOUND | QUANTITY_KIND | EXPERIMENTAL_RESULT |
| --- | --- | --- |
| COc1ccc(F)cc1C(=O)Nc1ccc([N+](=O)[O-])cc1Cl | MIC90 | > 1 µM |
| CN1CCN(C(=O)Oc2ccc(Cl)cc2C(=O)Nc2ccc([N+](=O)[O-])cc2Cl)CC1 | MIC90 | 0.75 µM |
| C#Cc1cc(NC(=O)c2cc(Cl)ccc2O)ccc1F | MIC90 | > 1 µM |
| O=C(Nc1cc(F)cc(F)c1)c1cc(Cl)ccc1O | MIC90 | > 1 µM |
| O=C(Nc1ccc([N+](=O)[O-])cc1Cl)c1cc(Cl)ccc1OC(=O)N1CCOCC1 | MIC90 | > 1 µM |
| CC(C)Oc1cccc(NC(=O)c2cc(Cl)ccc2O)c1 | MIC90 | > 1 µM |
| CCc1cccc(NC(=O)c2cc(Cl)ccc2O)c1 | MIC90 | 0.5 µM |
| N#Cc1ccc(Cl)c(NC(=O)c2cc(Cl)ccc2O)c1 | MIC90 | 0.75 µM |
| Cc1cc(C)cc(NC(=O)c2cc(Cl)ccc2O)c1 | MIC90 | > 1 µM |
| O=C(Nc1cccc(F)c1)c1cc(Cl)ccc1O | MIC90 | 0.75 µM |

Exercise: Looking for the measured MIC90 of COC(=O)[C@@H]1CCCN1C(=O)Oc1ccc(Cl)cc1C(=O)Nc1ccc([N+](=O)[O-])cc1Cl , can you help?
Solution: > 1 µM

Exercise: For O=C(Nc1cccc(C(F)(F)F)c1)c1cc(Cl)ccc1O then?
Solution: 0.25 µM

Exercise: Next up: O=C(Nc1cccc(Oc2ccccc2)c1)c1cc(Cl)ccc1O
Solution: > 1 µM

Exercise: Same thing, different compound: COc1ccc(F)cc1C(=O)Nc1ccc([N+](=O)[O-])cc1F
Solution: > 1 µM

Exercise: Input Cc1cccc(NC(=O)c2cc(Cl)ccc2O)c1
Solution: > 1 µM

---

Reported MIC90 values follow for various compounds
# Tested on: Toxoplasma gondii
# ASSAY_DETAILS: Antiapicomplexan activity against Toxoplasma gondii RH tachyzoites infected in HFF cells assessed as [3H]-uracil incorporation after 24 hrs by scintillation luminescence counter
# Assay type: functional
Unit µM implied. Number only.

Use the examples below as a reference point.
| COMPOUND | TARGET_SYSTEM | UNIT_ANNOTATION | MIC90 |
| --- | --- | --- | --- |
| Cc1ccc(O)c(C(=O)Nc2ccc([N+](=O)[O-])cc2Cl)c1 | Toxoplasma gondii | µM | 0.25 |
| O=C(Nc1cccc(Cc2ccccc2)c1)c1cc(Cl)ccc1O | Toxoplasma gondii | µM | 0.75 |
| CN(CC(=O)NN)C(=O)Oc1ccc(Cl)cc1C(=O)Nc1ccc([N+](=O)[O-])cc1Cl.Cl | Toxoplasma gondii | µM | 0.125 |
| CN(CC(=O)NN)C(=O)Oc1ccc(Cl)cc1C(=O)Nc1cc(C(F)(F)F)cc(C(F)(F)F)c1.Cl | Toxoplasma gondii | µM | 0.125 |
| O=C(Nc1cc(C(F)(F)F)cc(C(F)(F)F)c1)c1cc(Cl)ccc1O [IMD-0354] | Toxoplasma gondii | µM | 0.125 |
| C=Cc1cccc(NC(=O)c2cc(Cl)ccc2O)c1 | Toxoplasma gondii | µM | 0.75 |

# ---- query compound ----
Exercise: Form entry - test system: Toxoplasma gondii; read-out: MIC90; compound: O=C(Oc1ccc(Cl)cc1C(=O)Nc1ccc([N+](=O)[O-])cc1Cl)c1ccccc1
Solution: 0.125

---

# MIC90 annotations
# Tested on: Toxoplasma gondii
# ASSAY_DETAILS: Antiapicomplexan activity against Toxoplasma gondii RH tachyzoites infected in HFF cells assessed as [3H]-uracil incorporation after 24 hrs by scintillation luminescence counter
# Type: functional

Use the examples below as a reference point.
| ENTRY_SMILES | EXPERIMENTAL_RESULT |
| --- | --- |
| N#Cc1cccc(NC(=O)c2cc(Cl)ccc2O)c1 | > 1 µM |
| COc1ccc(NC(=O)c2cc(Cl)ccc2O)c(OC)c1OC | > 1 µM |

# context switch: different compound, same MIC90
Exercise: Write down the reported MIC90 of O=C(Nc1cccc(OC(C(F)(F)F)C(F)(F)F)c1)c1cc(Cl)ccc1O , test system: Toxoplasma gondii.
Solution: > 1 µM

---

# Test system: Toxoplasma gondii
# ASSAY_DETAILS: Antiapicomplexan activity against Toxoplasma gondii RH tachyzoites infected in HFF cells assessed as [3H]-uracil incorporation after 24 hrs by scintillation luminescence counter
# Format: functional
QUANTITY_KIND: MIC90

The examples below pair each entry with its known result.
| COMPOUND | EXPERIMENTAL_RESULT |
| --- | --- |
| O=C(Nc1ccc([N+](=O)[O-])cc1Cl)c1ccccc1O | > 1 µM |
| O=C(Nc1cccc(Cl)c1)c1cc(I)cc(I)c1O | > 1 µM |
| CCOc1cccc(NC(=O)c2cc(Cl)ccc2O)c1 | > 1 µM |

Exercise: Look at this compound and give its reported MIC90. O=C(Nc1ccc([N+](=O)[O-])cc1Cl)c1cc(Cl)ccc1O [NICLOSAMIDE]
Solution: 0.2 µM

Exercise: Would you kindly repeat that for CCOc1cccc(NC(=O)c2cc(F)ccc2O)c1 ?
Solution: > 1 µM

Exercise: Please answer likewise for O=C(Nc1ccc2c(c1)OCCO2)c1cc(Cl)ccc1O
Solution: > 1 µM

Exercise: Then CC(C)(C)c1cccc(NC(=O)c2cc(Cl)ccc2O)c1 ?
Solution: 0.016 µM

Exercise: Further, for COc1ccc(NC(=O)c2cc(Cl)ccc2O)cc1OC ?
Solution: > 1 µM

---

# Tested on: Toxoplasma gondii
# ASSAY_DETAILS: Antiapicomplexan activity against Toxoplasma gondii RH tachyzoites infected in HFF cells assessed as [3H]-uracil incorporation after 24 hrs by scintillation luminescence counter
# Assay type: functional
Catalogue of compounds with associated MIC90

Worked cases, answers included:
| ENTRY_SMILES | MIC90 |
| --- | --- |
| C#Cc1cccc(NC(=O)c2cc(Cl)ccc2O)c1 | > 1 µM |
| COc1ccc(C)c(NC(=O)c2cc(Cl)ccc2O)c1 | > 1 µM |

Exercise: Provide value of MIC90 for this record tested with Toxoplasma gondii: Nc1ccc(NC(=O)c2cc(Cl)ccc2O)c(Cl)c1
Solution: > 1 µM
